biological target: Sterol O-acyltransferase 1 (Rattus norvegicus) (UniProt O70536); experiment: Acute in vivo activity was measured by the total plasma cholesterol concentration levels(TC) at dose 3 mg/kg; format: functional, organism-based; set-up: dose 3 mg/kg
Is Delta TC at least -40%? Then 1.0. If not, 0.0.

>  <molecule>
CC(C)c1cccc(C(C)C)c1NC(=O)NS(=O)(=O)N(Cc1ccccc1)Cc1ccccc1

>  <label value>
1.0

$$$$
>  <molecule>
CC(C)c1cccc(C(C)C)c1NC(=O)NS(=O)(=O)N(CC1CCCO1)CC1CCCO1 (centres undefined)

>  <label value>
0.0

$$$$
>  <molecule>
CCCCCCCCN(C)S(=O)(=O)NC(=O)Nc1c(C(C)C)cccc1C(C)C

>  <label value>
0.0

$$$$
>  <molecule>
CC(C)c1cccc(C(C)C)c1NC(=O)NS(=O)(=O)N(c1ccccc1)c1ccccc1

>  <label value>
1.0

$$$$
>  <molecule>
CC(C)c1cccc(C(C)C)c1NC(=O)NS(=O)(=O)N(C)CCc1ccccc1

>  <label value>
1.0

$$$$
>  <molecule>
CCCCCCCCN(C)S(=O)(=O)NC(=O)Oc1c(C(C)(C)C)cc(C)cc1C(C)(C)C

>  <label value>
1.0

$$$$
>  <molecule>
COc1cc(C(C)C)c(OC(=O)NS(=O)(=O)Oc2c(C(C)C)cccc2C(C)C)c(C(C)C)c1

>  <label value>
1.0

$$$$
>  <molecule>
CC(C)c1cccc(C(C)C)c1OS(=O)(=O)NC(=O)OC1[C@@H](C(C)C)CCC[C@H]1C(C)C (some centres undefined)

>  <label value>
1.0

$$$$
>  <molecule>
Cc1cccc(C)c1OS(=O)(=O)NC(=O)Oc1c(C(C)C)cccc1C(C)C

>  <label value>
1.0

$$$$

====

Molecular target: Sterol O-acyltransferase 1 (Rattus norvegicus)
Sequence (whole entry): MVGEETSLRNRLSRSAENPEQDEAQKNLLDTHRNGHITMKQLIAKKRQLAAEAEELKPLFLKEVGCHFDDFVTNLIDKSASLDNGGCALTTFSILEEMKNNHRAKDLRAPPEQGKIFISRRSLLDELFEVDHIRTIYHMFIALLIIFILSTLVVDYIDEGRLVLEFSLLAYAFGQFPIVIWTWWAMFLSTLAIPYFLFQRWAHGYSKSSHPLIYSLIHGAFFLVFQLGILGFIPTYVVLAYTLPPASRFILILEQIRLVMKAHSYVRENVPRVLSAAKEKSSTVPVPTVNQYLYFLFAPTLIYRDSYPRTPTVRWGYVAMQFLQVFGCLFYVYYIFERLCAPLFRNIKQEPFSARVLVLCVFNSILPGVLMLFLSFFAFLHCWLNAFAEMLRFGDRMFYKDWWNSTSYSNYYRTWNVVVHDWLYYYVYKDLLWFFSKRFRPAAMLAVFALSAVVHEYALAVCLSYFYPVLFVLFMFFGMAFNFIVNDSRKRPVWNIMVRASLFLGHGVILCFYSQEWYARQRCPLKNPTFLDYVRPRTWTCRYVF
Test: Acute in vivo activity was measured by the total plasma cholesterol concentration levels(TC) at dose 50 mg/kg
Assay type: functional, organism-based
Set-up: dose 50 mg/kg

>  <compound>
CC(C)c1cccc(C(C)C)c1OC(=O)NS(=O)(=O)Nc1nc2ccccc2[nH]1

>  <Delta TC [%]>
8

$$$$
>  <compound>
CC(C)(C)c1cccc(C(C)(C)C)c1OC(=O)NS(=O)(=O)Nc1ccccc1

>  <Delta TC [%]>
-26

$$$$
>  <compound>
CC(C)c1cccc(C(C)C)c1NC(=O)NS(=O)(=O)Nc1c(C(C)C)cccc1C(C)C

>  <Delta TC [%]>
-54

$$$$
>  <compound>
CC(C)c1cccc(C(C)C)c1NS(=O)(=O)NC(=O)Oc1c(C(C)C)cccc1C(C)C

>  <Delta TC [%]>
-65

$$$$
>  <compound>
Cc1cc(C(C)(C)C)c(OC(=O)NS(=O)(=O)Nc2c(C(C)C)cccc2C(C)C)c(C(C)(C)C)c1

>  <Delta TC [%]>
-56

$$$$
>  <compound>
Cc1cc(C(C)(C)C)c(OC(=O)NS(=O)(=O)NC(c2ccccc2)c2ccccc2)c(C(C)(C)C)c1

>  <Delta TC [%]>
-42

$$$$
>  <compound>
CC(C)c1cccc(C(C)C)c1NC(=O)NS(=O)(=O)N(C(C)C)C(C)C

>  <Delta TC [%]>
-59

$$$$
>  <compound>
Cc1cc(C(C)(C)C)c(OC(=O)NS(=O)(=O)NCC(c2ccccc2)c2ccccc2)c(C(C)(C)C)c1

>  <Delta TC [%]>
-54

$$$$
>  <compound>
CC(C)(C)c1cccc(C(C)(C)C)c1OC(=O)NS(=O)(=O)NCC(c1ccccc1)c1ccccc1

>  <Delta TC [%]>
-32

$$$$
